# Procedure Details: Protein binding in human serum assessed as unbound fraction
# Assay type: ADME, cell-free
Measured Quantity: fraction unbound
Answers are plain numbers.

[in] # get_value(readout='fraction unbound', item= N#Cc1cnc2ccc(-c3c(-c4ccc(F)c(Cl)c4)ncn3CCO)nn12 )
[out] 0.1

* * *

# Tgt: TGF-beta receptor type-1 (Homo sapiens, UniProt P36897)
# Sequence (P36897 whole entry): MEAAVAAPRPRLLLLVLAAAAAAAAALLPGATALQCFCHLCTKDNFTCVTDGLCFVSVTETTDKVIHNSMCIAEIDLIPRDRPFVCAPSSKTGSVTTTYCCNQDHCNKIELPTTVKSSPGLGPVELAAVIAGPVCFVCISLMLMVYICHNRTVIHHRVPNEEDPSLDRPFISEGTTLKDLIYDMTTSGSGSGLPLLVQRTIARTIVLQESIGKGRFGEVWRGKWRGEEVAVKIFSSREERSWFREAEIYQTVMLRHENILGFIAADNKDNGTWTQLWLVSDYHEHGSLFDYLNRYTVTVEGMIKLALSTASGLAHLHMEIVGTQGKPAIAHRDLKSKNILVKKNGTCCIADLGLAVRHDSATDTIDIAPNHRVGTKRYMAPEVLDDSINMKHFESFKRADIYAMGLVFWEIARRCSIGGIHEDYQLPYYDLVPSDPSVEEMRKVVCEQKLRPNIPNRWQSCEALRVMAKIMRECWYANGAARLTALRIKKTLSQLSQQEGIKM
Measured Quantity: Ki
Your reply should be a number followed by the unit it is expressed in.

[in] # get_value(readout='Ki', item= N#Cc1cnc2ccc(-c3c(-c4ccc(F)c(Cl)c4)ncn3CCO)nn12 )
[out] 800 pM
